molecular target: human MetAP2 enzyme (Homo sapiens, UniProt P50579); test: MetAP2 enzyme assay, enzyme complexed with cobalt ions; conditions: MetAP2 Co pIC50, MetAP2 enzyme complexed with cobalt ions; Met-AMC substrate at Km
Sequence (P50579 whole entry): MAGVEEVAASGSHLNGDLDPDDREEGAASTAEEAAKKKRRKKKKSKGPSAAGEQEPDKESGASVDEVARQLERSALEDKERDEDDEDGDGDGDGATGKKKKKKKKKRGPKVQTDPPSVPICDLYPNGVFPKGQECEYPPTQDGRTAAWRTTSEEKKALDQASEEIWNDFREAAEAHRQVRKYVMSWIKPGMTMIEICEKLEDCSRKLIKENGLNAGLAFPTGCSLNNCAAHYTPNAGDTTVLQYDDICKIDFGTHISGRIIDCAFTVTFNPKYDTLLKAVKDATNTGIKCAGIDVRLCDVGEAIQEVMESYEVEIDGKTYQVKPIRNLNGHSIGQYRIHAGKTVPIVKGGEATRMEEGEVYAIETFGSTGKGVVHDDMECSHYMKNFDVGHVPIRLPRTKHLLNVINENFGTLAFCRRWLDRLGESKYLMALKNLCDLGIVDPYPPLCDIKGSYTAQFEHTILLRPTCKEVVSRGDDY
pIC50: −log10 of the molar value.
ASSAY READOUT: pIC50

QUERY SMILES: CN1CCN(C(=O)c2ccc(-c3cc(C(F)(F)F)cc4[nH]ncc34)cn2)CC1
TARGET: human MetAP2 enzyme (Homo sapiens, UniProt P50579)
ASSAY READOUT: pIC50
RECORDED RESULT: 6.50
//
QUERY SMILES: NS(=O)(=O)c1cccc(-c2cc(C(F)(F)F)cc3[nH]ncc23)c1
TARGET: human MetAP2 enzyme (Homo sapiens, UniProt P50579)
ASSAY READOUT: pIC50
RECORDED RESULT: 7.40

a = CCCOc1ncccc1-c1cc(C(F)(F)F)cc2[nH]ncc12
b = FC(F)(F)c1cc(-c2ccc3ccncc3c2)c2cn[nH]c2c1
Query: Endpoint returns whichever of a and b has the numerically higher pIC50. # respond with the chosen item's label
Response: b
(b: 7.20, a: 7.00)

I = Cc1ncsc1-c1cc(C(F)(F)F)cc2[nH]ncc12
II = FC(F)(F)c1cc(-c2cnn(Cc3ccncc3)c2)c2cn[nH]c2c1
Query: Endpoint returns whichever of I and II has the numerically higher pIC50. # respond with the chosen item's label
Response: I

P = O=C1Cc2c(cccc2-c2cc(C(F)(F)F)cc3[nH]ncc23)N1
Q = FC(F)(F)c1cc(-c2cccc(N3CCOCC3)c2)c2cn[nH]c2c1
Query: Endpoint returns whichever of P and Q has the numerically higher pIC50. # respond with the chosen item's label
Response: P

Each recorded value in this set is attributed to patent US9434743B2.
